test system: Phytophthora infestans; assay type: in vivo; settings: Table 9: monosaccharide 10% liquid preparation, no assistant, 10-fold dilution (monosaccharide 1%)
readout kind: preventive value LB

molecule: O=C(CO)[C@H](O)[C@H](O)[C@H](O)CO [D-psicose]
readout kind: preventive value LB
result: (47)
//
molecule: O=C(CO)[C@H](O)[C@@H](O)[C@H](O)CO [D-sorbose]
readout kind: preventive value LB
result: (33)
//
molecule: O=C[C@H](O)[C@@H](O)[C@@H](O)[C@H](O)CO [D-galactose]
readout kind: preventive value LB
result: (0)
//
molecule: OC[C@H]1OC(O)[C@H](O)[C@H](O)[C@@H]1O (stereo partly drawn) [D-allose]
readout kind: preventive value LB
result: (60)
